Assignment: determine reported -TdeltaS for the given compounds.
tested on: Transthyretin (Homo sapiens), P02766 [V50M]; experiment: Binding affinity to N-terminal hexa-histidine tagged TTR V30M mutant (unknown origin) expressed in Escherichia coli assessed as change in entropy at 60 uM by ITC assay
Numbers only, in kcal/mol.

// worked examples, -TdeltaS included
smiles_text=O=C(O)c1cc(-c2ccc(F)cc2F)ccc1O observation_type=-TdeltaS value_measured=5.2
smiles_text=Oc1cc(O)cc(/C=C/c2ccc(O)cc2O)c1 observation_type=-TdeltaS value_measured=7.5
smiles_text=COc1cc(/C=C/c2ccc(O)cc2)cc(OC)c1 observation_type=-TdeltaS value_measured=6.8
smiles_text=Oc1cc(O)cc(/C=C/c2c(O)cccc2O)c1 observation_type=-TdeltaS value_measured=1.7
smiles_text=COc1cc(/C=C/c2cc(O)cc(O)c2)ccc1O observation_type=-TdeltaS value_measured=4.7

Please look at the following compound next.
For record O=C(O)c1ccc2nc(-c3cc(Cl)cc(Cl)c3)oc2c1 the listed -TdeltaS is -4
